Each recorded value in this set is attributed to patent US6348311B1.

target: ATR (Homo sapiens, UniProt Q13535); construct: made in house; host or cells: 293T cells, transient transfection with pBJF-FRPwt, anti-FLAG M2 immunoprecipitate; assay: In vitro kinase assay, ATR with GST-peptide / GST-fusion substrates; format: biochemical; conditions: GST-peptide substrate; relative to the p53ser15 site
Sequence (Q13535 whole entry, the tested form may be a part): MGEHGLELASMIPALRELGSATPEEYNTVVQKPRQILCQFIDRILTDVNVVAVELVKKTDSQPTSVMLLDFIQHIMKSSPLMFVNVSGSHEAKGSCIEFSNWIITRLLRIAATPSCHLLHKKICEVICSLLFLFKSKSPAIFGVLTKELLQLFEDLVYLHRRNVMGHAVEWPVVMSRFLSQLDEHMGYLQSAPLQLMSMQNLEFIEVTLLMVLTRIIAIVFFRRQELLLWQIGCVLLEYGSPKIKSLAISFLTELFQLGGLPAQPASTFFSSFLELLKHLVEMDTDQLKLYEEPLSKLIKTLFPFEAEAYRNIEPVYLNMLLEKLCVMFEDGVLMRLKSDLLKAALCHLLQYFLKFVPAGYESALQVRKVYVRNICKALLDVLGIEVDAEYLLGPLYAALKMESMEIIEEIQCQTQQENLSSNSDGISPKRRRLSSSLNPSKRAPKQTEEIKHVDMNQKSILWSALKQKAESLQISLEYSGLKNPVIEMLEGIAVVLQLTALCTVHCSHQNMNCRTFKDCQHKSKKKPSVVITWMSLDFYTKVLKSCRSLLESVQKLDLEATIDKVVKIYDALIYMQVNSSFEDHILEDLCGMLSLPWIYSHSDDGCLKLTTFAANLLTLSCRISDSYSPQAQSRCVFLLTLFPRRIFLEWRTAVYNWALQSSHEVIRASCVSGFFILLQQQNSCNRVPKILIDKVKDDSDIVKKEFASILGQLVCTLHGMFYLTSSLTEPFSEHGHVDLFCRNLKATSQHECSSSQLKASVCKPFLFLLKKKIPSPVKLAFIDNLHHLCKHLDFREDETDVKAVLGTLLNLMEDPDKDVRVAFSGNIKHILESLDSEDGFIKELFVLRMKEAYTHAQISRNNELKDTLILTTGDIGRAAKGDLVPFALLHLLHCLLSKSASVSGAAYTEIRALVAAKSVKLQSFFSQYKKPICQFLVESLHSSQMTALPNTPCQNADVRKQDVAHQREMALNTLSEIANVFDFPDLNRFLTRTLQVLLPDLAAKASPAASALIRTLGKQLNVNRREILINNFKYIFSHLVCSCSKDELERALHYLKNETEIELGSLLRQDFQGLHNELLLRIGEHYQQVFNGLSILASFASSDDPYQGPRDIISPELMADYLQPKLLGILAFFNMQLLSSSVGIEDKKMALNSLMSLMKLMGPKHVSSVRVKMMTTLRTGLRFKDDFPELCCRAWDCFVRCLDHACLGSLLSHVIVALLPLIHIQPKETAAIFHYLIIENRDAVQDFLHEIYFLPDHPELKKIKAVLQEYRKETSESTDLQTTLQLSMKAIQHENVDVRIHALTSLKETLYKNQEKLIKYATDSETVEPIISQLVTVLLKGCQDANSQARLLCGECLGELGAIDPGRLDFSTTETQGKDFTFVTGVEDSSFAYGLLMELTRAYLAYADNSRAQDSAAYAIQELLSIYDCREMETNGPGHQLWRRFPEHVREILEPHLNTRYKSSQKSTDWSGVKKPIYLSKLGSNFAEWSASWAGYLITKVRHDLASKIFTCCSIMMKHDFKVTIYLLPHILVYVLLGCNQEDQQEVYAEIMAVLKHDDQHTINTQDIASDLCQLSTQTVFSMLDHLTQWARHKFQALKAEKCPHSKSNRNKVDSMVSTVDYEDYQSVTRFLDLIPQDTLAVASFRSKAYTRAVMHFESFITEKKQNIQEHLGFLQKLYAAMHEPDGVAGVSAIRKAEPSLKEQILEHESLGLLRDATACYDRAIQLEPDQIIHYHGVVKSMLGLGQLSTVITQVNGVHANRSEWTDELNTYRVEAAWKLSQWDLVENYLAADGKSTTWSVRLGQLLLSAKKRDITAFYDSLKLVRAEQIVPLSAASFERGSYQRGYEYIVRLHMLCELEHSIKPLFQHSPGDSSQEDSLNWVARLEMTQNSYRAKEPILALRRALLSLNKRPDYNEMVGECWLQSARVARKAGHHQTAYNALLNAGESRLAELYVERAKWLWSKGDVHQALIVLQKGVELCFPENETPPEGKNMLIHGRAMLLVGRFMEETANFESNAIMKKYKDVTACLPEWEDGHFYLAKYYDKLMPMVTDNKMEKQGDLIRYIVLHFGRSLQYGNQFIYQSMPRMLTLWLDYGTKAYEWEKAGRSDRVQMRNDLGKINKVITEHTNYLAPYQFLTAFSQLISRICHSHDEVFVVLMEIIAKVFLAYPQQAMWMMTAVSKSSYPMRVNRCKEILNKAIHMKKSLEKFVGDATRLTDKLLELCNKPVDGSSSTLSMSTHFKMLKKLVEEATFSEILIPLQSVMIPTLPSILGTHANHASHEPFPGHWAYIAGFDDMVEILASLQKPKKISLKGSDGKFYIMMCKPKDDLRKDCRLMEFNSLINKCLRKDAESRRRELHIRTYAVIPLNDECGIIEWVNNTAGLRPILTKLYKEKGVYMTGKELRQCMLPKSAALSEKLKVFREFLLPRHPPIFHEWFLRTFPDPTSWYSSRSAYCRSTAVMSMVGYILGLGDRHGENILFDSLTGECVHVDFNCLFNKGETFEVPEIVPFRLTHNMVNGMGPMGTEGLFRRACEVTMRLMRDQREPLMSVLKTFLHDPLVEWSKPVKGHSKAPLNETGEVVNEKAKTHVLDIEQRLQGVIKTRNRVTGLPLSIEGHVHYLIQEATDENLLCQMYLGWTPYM
Where no end group is shown, it is not given here.
READOUT: Relative Phosphorylation (%) ATR

(a) WRN (SQ1): GST-peptide EKAYSSSQPVISAQ (SEQ ID NO:21), S1141 (not fully specified (N-terminus); also: GST fusion; listed as Homo sapiens)
(b) ATM S2761: GST-peptide YKVVPLSQRSGVLE (SEQ ID NO:25), S2761 of ATM (also: GST fusion)
(c) c-ABL: GST-peptide YPGIDLSQVYELLE (SEQ ID NO:23), S446 (not fully specified (N-terminus); also: GST fusion; listed as Homo sapiens)
Req: Ranking request: Relative Phosphorylation (%) ATR, max to min, items above. Thanks in advance for listing the labels in the requested order.
Resp: a, b, c
(a: 49%, b: 22%, c: 8%)

(a) DNA LIG-IV: GST-peptide DLKLGVSQQTIFSV (SEQ ID NO:39), S132 (also: GST fusion)
(b) CHK1 (SQ1): GST-peptide NVKYSSSQPEPRTG (SEQ ID NO:16), S317 (also: GST fusion)
Req: For this pair, a and b , which shows a numerically higher Relative Phosphorylation (%) ATR? In your reply, give the label of the chosen option.
Resp: b
(b: 58%, a: 36%)

(1) p95: GST-peptide TPGPSLSQGVSVDE (SEQ ID NO:10), S343 (not fully specified (N-terminus); also: GST fusion; listed as Homo sapiens)
(2) RPA34kD (SQ1): GST-peptide FPAPAPSQAEKKSR (SEQ ID NO:40), S33 (not fully specified (N-terminus); also: GST fusion; listed as Homo sapiens)
Req: Endpoint returns whichever of 1 and 2 has the numerically higher Relative Phosphorylation (%) ATR. // output: label of the selected item
Resp: 1
(1: 31%, 2: 5%)

(A) p120E4F: GST-peptide APEPPVSQELPCSR (SEQ ID NO:31), S355 (not fully specified (N-terminus); also: GST fusion; listed as Homo sapiens)
(B) 4EBP1 (Phas I): GST-peptide EPPMEASQSHLRNS (SEQ ID NO:9), S94 (also: GST fusion)
Req: Task for the reader: decide whether A or B has the larger Relative Phosphorylation (%) ATR. Choose, then provide that item's label.
Resp: B

(A) BRCA1 (SQ2): GST-peptide DCSGLSSQSDILTT (SEQ ID NO:33), S1387 (also: GST fusion)
(B) MRE11 (SQ3): GST-peptide RARALRSQSEESAS (SEQ ID NO:13), S531 (also: GST fusion)
Req: Which is greater in Relative Phosphorylation (%) ATR, the first item A or the second item B ? Refer to your chosen item by its label in the answer.
Resp: A
(A: 35%, B: 13%)

(a) p53 S37: GST-peptide VLSPLPSQAMDDLM (SEQ ID NO:8), p53 serine 37 site (not fully specified (N-terminus); also: GST fusion; listed as Homo sapiens)
(b) MRE11 (SQ1): GST-peptide QQLFYISQPGSSVV (SEQ ID NO:11), S264 (also: GST fusion)
(c) DNA 5B: GST-peptide QPEPPVSQSEISEP (SEQ ID NO:38), S72 (also: GST fusion)
(d) p115-RhoGEF: GST-peptide RLRPLLSQLGGNSV (SEQ ID NO:27), S899 (not fully specified (N-terminus); also: GST fusion; listed as Homo sapiens)
Req: Let's sort these by Relative Phosphorylation (%) ATR, smallest first. Go ahead? Arrange the labels as the request states and list them.
Resp: d, a, b, c

(1) PTS (123F2): GST-peptide WETPDLSQAEIEQK (SEQ ID NO:37), S61 (not fully specified (N-terminus); also: GST fusion)
(2) CtIP: GST-peptide DPGADLSQYKMDVT (SEQ ID NO:44), S664 (also: GST fusion)
Req: Response body: label of entry with the larger Relative Phosphorylation (%) ATR; valid values 1 , 2 . Your answer should be the label of the entry you select.
Resp: 1
